Source listed as PubChem BioAssay AID1919009.

- System: K24384-001-R-PDC complex spheroid growth
- assay_details: Anticancer human tumor K24384-001-R-PDC patient-derived pancreatic adenocarcinoma cell line growth inhibition [AhR]
- experimental_conditions: second compound 10 µM; first compound 3 µM; stronger effect = lower value
measurement_name: viability, T/C (%)
Reply with just the number (in %).

Give reported viability, T/C for O=C(C=Cn1cnc(-c2cc(C(F)(F)F)cc(C(F)(F)F)c2)n1)NNc1cnccn1 + Cc1ccccc1N=Nc1ccc(NC(=O)c2ccnn2C)c(C)c1 (K24384-001-R-PDC complex spheroid growth) 25.8

====

- Tested on: K24384-001-R-PDC complex spheroid growth
- assay_details: Anticancer human tumor K24384-001-R-PDC cell line growth inhibition [AhR];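 for viability, T/C: percent of DMSO vehicle-treated spheroid viability set as 100%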
- experimental_conditions: second compound 1 µM; first compound 0.000949 µM; stronger effect = lower value
The following compounds are listed with their measured viability, T/C values.
Reply with just the number (in %).

Give reported viability, T/C for CC(C)CC(NC(=O)C(Cc1ccccc1)NC(=O)c1cnccn1)B(O)O (centres undefined) + Cc1ccccc1N=Nc1ccc(NC(=O)c2ccnn2C)c(C)c1 (K24384-001-R-PDC complex spheroid growth) 104

Give reported viability, T/C for Nc1ncn(C2CC(O)C(CO)S2)c(=O)n1 (centres undefined) + Cc1ccccc1N=Nc1ccc(NC(=O)c2ccnn2C)c(C)c1 (K24384-001-R-PDC complex spheroid growth) 99.3

Give reported viability, T/C for CCc1c2c(nc3ccc(O)cc13)-c1cc3c(c(=O)n1C2)COC(=O)[C@]3(O)CC + CC(CO)NC(=O)c1cc(-c2ccc(Cl)cc2)nn(-c2cnn(C)c2)c1=O (K24384-001-R-PDC complex spheroid growth) 63.5

Give reported viability, T/C for CC(C)CC(NC(=O)C(Cc1ccccc1)NC(=O)c1cnccn1)B(O)O (centres undefined) + CC(CO)NC(=O)c1cc(-c2ccc(Cl)cc2)nn(-c2cnn(C)c2)c1=O (K24384-001-R-PDC complex spheroid growth) 108

====

- System: K24384-001-R-PDC complex spheroid growth
- assay_details: Anticancer human tumor K24384-001-R-PDC cell line growth inhibition [AhR];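 for viability, T/C: percent of DMSO vehicle-treated spheroid viability set as 100%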
- experimental_conditions: second compound 1 µM; first compound 0.01 µM; stronger effect = lower value
The following compounds are listed with their measured viability, T/C values.
Reply with just the number (in %).

The examples below pair each entry with its known result.
compound | unit_of_measure | viability, T/C
Cn1ncnc1C1c2n[nH]c(=O)c3cc(F)cc(c23)NC1c1ccc(F)cc1 (stereo not drawn) + Cc1cncc(-c2nc(NCCc3c[nH]c4ccccc34)c3ncn(C(C)C)c3n2)c1 | % | 101
CC1COCCN1c1cc(-c2ccnn2C)c2ccnc(-c3ccn[nH]3)c2n1 (stereo not drawn) + Cc1ccccc1N=Nc1ccc(NC(=O)c2ccnn2C)c(C)c1 | % | 99.5

Provide only the value of recorded viability, T/C for CC1COCCN1c1cc(-c2ccnn2C)c2ccnc(-c3ccn[nH]3)c2n1 (stereo not drawn) + Cc1cncc(-c2nc(NCCc3c[nH]c4ccccc34)c3ncn(C(C)C)c3n2)c1 104

====

- Tested on: K24384-001-R-PDC complex spheroid growth
- assay_details: Anticancer human tumor K24384-001-R-PDC cell line growth inhibition [AhR]; active = viability on the fitted dose curve at most 10% of control; inactive = the rest
- experimental_conditions: second compound 0.1 µM; first compound 0.0949 µM
Return exactly one item of active, inactive

compound | assigned_class
Nc1ncn(C2CC(O)C(CO)S2)c(=O)n1 (stereo not drawn) + Cc1ccccc1N=Nc1ccc(NC(=O)c2ccnn2C)c(C)c1 | inactive
CCN(c1cc(-c2ccc(CN3CCOCC3)cc2)cc(C(=O)NCc2c(C)cc(C)[nH]c2=O)c1C)C1CCOCC1 + Cc1ccccc1N=Nc1ccc(NC(=O)c2ccnn2C)c(C)c1 | inactive

Turning now to a further record.
Could you check what this test reported for CC(C)CC(NC(=O)C(Cc1ccccc1)NC(=O)c1cnccn1)B(O)O (stereo not drawn) + Cc1ccccc1N=Nc1ccc(NC(=O)c2ccnn2C)c(C)c1 ? active

====

The following compounds are listed with their measured viability, T/C values.
- Tested on: K24384-001-R-PDC complex spheroid growth
- assay_details: Anticancer human tumor K24384-001-R-PDC cell line growth inhibition [AhR];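 for viability, T/C: percent of DMSO vehicle-treated spheroid viability set as 100%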
- experimental_conditions: second compound 1 µM; first compound 0.1 µM; stronger effect = lower value

Provide only the value of recorded viability, T/C for NS(=O)(=O)OCC1CC(n2ccc3c(NC4CCc5ccccc54)ncnc32)CC1O (stereo not drawn) + Cc1ccccc1N=Nc1ccc(NC(=O)c2ccnn2C)c(C)c1 127%

Provide only the value of recorded viability, T/C for CC1COCCN1c1cc(-c2ccnn2C)c2ccnc(-c3ccn[nH]3)c2n1 (stereo not drawn) + CC(CO)NC(=O)c1cc(-c2ccc(Cl)cc2)nn(-c2cnn(C)c2)c1=O 49%

Provide only the value of recorded viability, T/C for CC[C@@]1(O)C(=O)OCc2c1cc1n(c2=O)Cc2cc3c(CN(C)C)c(O)ccc3nc2-1 + CC(CO)NC(=O)c1cc(-c2ccc(Cl)cc2)nn(-c2cnn(C)c2)c1=O 39.8%

====

- System: K24384-001-R-PDC complex spheroid growth
- assay_details: Anticancer human tumor K24384-001-R-PDC cell line growth inhibition [AhR]
- experimental_conditions: curve of first compound; second compound 0.1 µM
pIC50: −log10 of the molar value.
measurement_name: pIC50

The examples below pair each entry with its known result.
compound | observed_result
CC1(C)CCC(CN2CCN(c3ccc(C(=O)NS(=O)(=O)c4ccc(NCC5CCOCC5)c([N+](=O)[O-])c4)c(Oc4cnc5[nH]ccc5c4)c3)CC2)=C(c2ccc(Cl)cc2)C1 + Cc1cncc(-c2nc(NCCc3c[nH]c4ccccc34)c3ncn(C(C)C)c3n2)c1 | 5.21
Nc1ncn(C2CC(O)C(CO)O2)c(=O)n1 (stereo not drawn) + Cc1cncc(-c2nc(NCCc3c[nH]c4ccccc34)c3ncn(C(C)C)c3n2)c1 | < 6.00

# context switch: different compound, same pIC50
Provide only the value of recorded pIC50 for Nc1ncn(C2CC(O)C(CO)S2)c(=O)n1 (stereo not drawn) + Cc1cncc(-c2nc(NCCc3c[nH]c4ccccc34)c3ncn(C(C)C)c3n2)c1 < 6.52

====

The following compounds are listed with their measured viability, T/C values.
- Tested on: K24384-001-R-PDC complex spheroid growth
- assay_details: Anticancer human tumor K24384-001-R-PDC cell line growth inhibition [AhR];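 for viability, T/C: percent of DMSO vehicle-treated spheroid viability set as 100%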
- experimental_conditions: second compound 0.316 µM; first compound 3.16 µM; stronger effect = lower value
Reply with just the number (in %).

The examples below pair each entry with its known result.
compound | observed_result
COc1cc(Nc2ncc3c(n2)-c2ccc(Cl)cc2C(c2c(F)cccc2OC)=NC3)ccc1C(=O)O + Cc1ccccc1N=Nc1ccc(NC(=O)c2ccnn2C)c(C)c1 | 52.6
COc1cc(C2c3cc4c(cc3C(OC3OC5COC(C)OC5C(O)C3O)C3COC(=O)C23)OCO4)cc(OC)c1O (stereo not drawn) + Cc1cncc(-c2nc(NCCc3c[nH]c4ccccc34)c3ncn(C(C)C)c3n2)c1 | 35.4

Give reported viability, T/C for CC(C)c1c(-c2ccccc2)nc2c(C#N)c[nH]n2c1=O + Cc1cncc(-c2nc(NCCc3c[nH]c4ccccc34)c3ncn(C(C)C)c3n2)c1 (K24384-001-R-PDC complex spheroid growth) 87.5

Give reported viability, T/C for O=C(c1cc(Cc2n[nH]c(=O)c3ccccc23)ccc1F)N1CCN(C(=O)C2CC2)CC1 + Cc1cncc(-c2nc(NCCc3c[nH]c4ccccc34)c3ncn(C(C)C)c3n2)c1 (K24384-001-R-PDC complex spheroid growth) 106

====

- Tested on: K24384-001-R-PDC complex spheroid growth
- assay_details: Anticancer human tumor K24384-001-R-PDC cell line growth inhibition [AhR];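 for viability, T/C: percent of DMSO vehicle-treated spheroid viability set as 100%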
- experimental_conditions: second compound 0.1 µM; first compound 0.0949 µM; stronger effect = lower value
measurement_name: viability, T/C (%)
Reply with just the number (in %).

The examples below pair each entry with its known result.
compound | unit_of_measure | viability, T/C
CC(C)CC(NC(=O)C(Cc1ccccc1)NC(=O)c1cnccn1)B(O)O (configuration not stated) + CC(CO)NC(=O)c1cc(-c2ccc(Cl)cc2)nn(-c2cnn(C)c2)c1=O | % | 0.73
CCN(c1cc(-c2ccc(CN3CCOCC3)cc2)cc(C(=O)NCc2c(C)cc(C)[nH]c2=O)c1C)C1CCOCC1 + Cc1cncc(-c2nc(NCCc3c[nH]c4ccccc34)c3ncn(C(C)C)c3n2)c1 | % | 129
Nc1ncn(C2CC(O)C(CO)S2)c(=O)n1 (configuration not stated) + Cc1cncc(-c2nc(NCCc3c[nH]c4ccccc34)c3ncn(C(C)C)c3n2)c1 | % | 78.1
CCc1c2c(nc3ccc(O)cc13)-c1cc3c(c(=O)n1C2)COC(=O)[C@]3(O)CC + Cc1cncc(-c2nc(NCCc3c[nH]c4ccccc34)c3ncn(C(C)C)c3n2)c1 | % | 28
Nc1ncn(C2CC(O)C(CO)S2)c(=O)n1 (configuration not stated) + CC(CO)NC(=O)c1cc(-c2ccc(Cl)cc2)nn(-c2cnn(C)c2)c1=O | % | 84.4
O=C(C=Cn1cnc(-c2cc(C(F)(F)F)cc(C(F)(F)F)c2)n1)NNc1cnccn1 + CC(CO)NC(=O)c1cc(-c2ccc(Cl)cc2)nn(-c2cnn(C)c2)c1=O | % | 80.1
CC(C)CC(NC(=O)C(Cc1ccccc1)NC(=O)c1cnccn1)B(O)O (configuration not stated) + Cc1cncc(-c2nc(NCCc3c[nH]c4ccccc34)c3ncn(C(C)C)c3n2)c1 | % | 0.43
O=C(C=Cn1cnc(-c2cc(C(F)(F)F)cc(C(F)(F)F)c2)n1)NNc1cnccn1 + Cc1cncc(-c2nc(NCCc3c[nH]c4ccccc34)c3ncn(C(C)C)c3n2)c1 | % | 73.2

Provide only the value of recorded viability, T/C for CCN(c1cc(-c2ccc(CN3CCOCC3)cc2)cc(C(=O)NCc2c(C)cc(C)[nH]c2=O)c1C)C1CCOCC1 + CC(CO)NC(=O)c1cc(-c2ccc(Cl)cc2)nn(-c2cnn(C)c2)c1=O 122

Provide only the value of recorded viability, T/C for CCc1c2c(nc3ccc(O)cc13)-c1cc3c(c(=O)n1C2)COC(=O)[C@]3(O)CC + CC(CO)NC(=O)c1cc(-c2ccc(Cl)cc2)nn(-c2cnn(C)c2)c1=O 40.8

Provide only the value of recorded viability, T/C for O=C(C=Cn1cnc(-c2cc(C(F)(F)F)cc(C(F)(F)F)c2)n1)NNc1cnccn1 + Cc1ccccc1N=Nc1ccc(NC(=O)c2ccnn2C)c(C)c1 68.2

Provide only the value of recorded viability, T/C for CCc1c2c(nc3ccc(O)cc13)-c1cc3c(c(=O)n1C2)COC(=O)[C@]3(O)CC + Cc1ccccc1N=Nc1ccc(NC(=O)c2ccnn2C)c(C)c1 49.8
